# System: CTLL-20 murine T cell line
# procedure.summary: IL-2 microassay, IL-2 dependent CTLL proliferation
# Type: cell-based
# experimental.parameters: Mus musculus; inhibition of proliferation of cytotoxic T cells stimulated by IL-2; read-out: CTLL
pIC50: −log10 of the molar value.
readout: pIC50

| compound | readout | limit.operator | value.reported |
| --- | --- | --- | --- |
| COc1cc(C(=O)C(=O)N2CCCC[C@H]2C(=O)OC(CCCc2ccccc2)CCCc2ccccn2)cc(OC)c1OC (some centres unmarked) | pIC50 | = | 5.70 |
| COc1cc(C(=O)C(=O)N2CCCC[C@H]2C(=O)OC(CCCc2ccccc2)CCCn2cnc3ccccc32)cc(OC)c1OC (some centres unmarked) | pIC50 | = | 5.30 |
| O=C(C(=O)N1CCCC[C@H]1C(=O)OC(CCCc1ccccc1)CCCc1cccnc1)c1ccccc1 (some centres unmarked) | pIC50 | = | 5.15 |
| COc1cc(C(=O)C(=O)N2CCCC[C@H]2C(=O)OCC(CCc2ccccc2)Cc2ccccc2)cc(OC)c1OC (mixture of isomers) | pIC50 | = | 5.22 |
| COc1cc(C(=O)C(=O)N2CCCC[C@H]2C(=O)OC(CCCc2ccccc2)CCCc2cccc(C(=O)O)c2)cc(OC)c1OC (some centres unmarked) | pIC50 | < | 5.00 |
| COc1cc(C(=O)C(=O)N2CCCC[C@H]2C(=O)OC(CCCc2c[nH]c3ccccc23)Cc2ccccc2)cc(OC)c1OC (mixture of isomers) | pIC50 | = | 5.00 |
| CC(C)Oc1cccc(C(=O)C(=O)N2CCCC[C@H]2C(=O)OC(CCCc2ccccc2)CCCc2cccnc2)c1 (some centres unmarked) | pIC50 | = | 5.40 |
| COc1cc(C(=O)C(=O)N2CCCC[C@H]2C(=O)OC(CCCc2ccccc2)c2ccccc2)cc(OC)c1OC (some centres unmarked) | pIC50 | = | 5.30 |
| COc1cc(C(=O)C(=O)N2CCCC[C@H]2C(=O)OC(CCCCc2ccccc2)CCCc2cccs2)cc(OC)c1OC (some centres unmarked) | pIC50 | = | 5.00 |
| COc1ccc(CCC(CCCc2ccccc2)OC(=O)[C@@H]2CCCCN2C(=O)C(=O)c2cc(OC)c(OC)c(OC)c2)cc1 (some centres unmarked) | pIC50 | = | 5.05 |
| COc1cc(C(=O)C(=O)N2CCCC[C@H]2C(=O)OC(CCCc2ccccc2)CCCc2cccnc2)cc(OC)c1OC (mixture of isomers) | pIC50 | = | 5.60 |
| C=CCOc1cccc(C(=O)C(=O)N2CCCC[C@H]2C(=O)OC(CCCc2ccccc2)CCCc2cccnc2)c1 (some centres unmarked) | pIC50 | = | 5.52 |
| COc1cc(C(=O)C(=O)N2CCCC[C@H]2C(=O)OC(CCCc2ccccc2)/C(C)=C/[C@H]2CC[C@H](O)CC2)cc(OC)c1OC (mixture of isomers) | pIC50 | = | 5.40 |
| COc1cc(C(=O)C(=O)N2CCCC[C@H]2C(=O)OC(CCCc2ccccc2)CCc2ccccc2)cc(OC)c1OC (some centres unmarked) | pIC50 | = | 5.09 |
| COc1ccc(CCC(CCCc2ccccc2)OC(=O)[C@@H]2CCCCN2C(=O)C(=O)c2ccccc2)cc1 (some centres unmarked) | pIC50 | < | 5.00 |
| COc1cc(C(=O)C(=O)N2CCCC[C@H]2C(=O)OC(CCCc2ccccc2)Cc2ccccc2)cc(OC)c1OC (some centres unmarked) | pIC50 | = | 5.22 |
| COc1cc(C(=O)C(=O)N2CCC[C@H]2C(=O)OC(CCCc2ccccc2)CCCc2ccccn2)cc(OC)c1OC (some centres unmarked) | pIC50 | = | 5.40 |
| COc1cc(C(=O)C(=O)N2CCCC[C@H]2C(=O)OC(CCCCCc2ccccc2)CCCc2ccccc2)cc(OC)c1OC (some centres unmarked) | pIC50 | < | 5.00 |
| COc1cc(C(=O)C(=O)N2CCCC[C@H]2C(=O)OC(CCCc2ccccc2)c2cccc(CO)c2)cc(OC)c1OC (some centres unmarked) | pIC50 | = | 5.92 |
| COc1cc(C(=O)C(=O)N2CCCC[C@H]2C(=O)OC(CCCc2ccccc2)c2ccccc2CO)cc(OC)c1OC (some centres unmarked) | pIC50 | = | 5.52 |
| COc1cc(C(=O)C(=O)N2CCCC[C@H]2C(=O)OC(CCCc2ccccc2)CCCc2ccc[n+]([O-])c2)cc(OC)c1OC (mixture of isomers) | pIC50 | = | 5.64 |
| COc1cc(C(=O)C(=O)N2CCCC[C@H]2C(=O)OC(CCCc2ccccc2)CCCc2ccc(CO)cc2)cc(OC)c1OC (some centres unmarked) | pIC50 | = | 5.40 |
| COc1cc(C(=O)C(=O)N2CCCC[C@H]2C(=O)OC(CCCCc2ccccc2)CCCc2ccccc2)cc(OC)c1OC (some centres unmarked) | pIC50 | = | 5.12 |
| COc1cc(C(=O)C(=O)N2CCCC[C@H]2C(=O)OC(CCCc2ccccc2)CCCc2ccccc2)cc(OC)c1OC | pIC50 | = | 5.10 |
| COc1cc(C(=O)C(=O)N2CCCC[C@H]2C(=O)OC(CCCc2ccccc2)c2cccnc2)cc(OC)c1OC (some centres unmarked) | pIC50 | = | 5.60 |
| COc1cc(C(=O)C(=O)N2CCCC[C@H]2C(=O)OC(CCCc2ccccc2)CCc2cccnc2)cc(OC)c1OC (mixture of isomers) | pIC50 | = | 5.70 |
